Entry source: patent US6770649B2

Target: NK-2 receptors (Cavia porcellus, UniProt Q64077)
Construct: the NK-2 receptors present in the gall-bladder preparations; from tissue; host or cells: Pirbright-White guinea pig: isolated gall-bladder (A2); anaesthetised whole animal (A3)
Sequence (Q64077 1-402): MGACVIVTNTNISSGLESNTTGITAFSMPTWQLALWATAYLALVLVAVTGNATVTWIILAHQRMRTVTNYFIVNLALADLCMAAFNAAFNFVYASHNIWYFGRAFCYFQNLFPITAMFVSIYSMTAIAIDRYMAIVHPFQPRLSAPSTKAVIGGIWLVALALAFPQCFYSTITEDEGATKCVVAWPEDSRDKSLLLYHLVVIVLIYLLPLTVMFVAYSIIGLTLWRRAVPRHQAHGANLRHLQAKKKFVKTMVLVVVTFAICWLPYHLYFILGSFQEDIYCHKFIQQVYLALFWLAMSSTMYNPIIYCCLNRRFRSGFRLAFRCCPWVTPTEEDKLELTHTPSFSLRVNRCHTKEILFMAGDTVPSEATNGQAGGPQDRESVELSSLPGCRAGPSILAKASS
Assay: NK-2-receptor-antagonistic effectiveness in vivo in anaesthetised guinea pigs (NKA test stimulus)
Design: species or system guinea pig
Conditions: guinea pig, iv, cumulative dosing, NKA stimulus 1 min. after administration; NK-2-mediated late drop in blood pressure; read-out: ED50 Blood pressure, i.v. after 1 min. (cumulative)
Threshold 0.06 µmol/kg. ED50 below it: condition met. ED50 at it or above: condition not met.

CN(C[C@@H](CCN1CCN(C(c2ccsc2)[C@H](O)[C@H](O)CO)CC1)c1ccc(Cl)c(Cl)c1)C(=O)c1ccccc1 (some centres unmarked) [Example 15]: condition not met

## Input Decide: ED50 of CC(=O)OC[C@@H](OC(C)=O)[C@H](OC(C)=O)[C@@H](OC(C)=O)C(c1ccsc1)N1CCN(CC[C@H](CN(C)C(=O)c2ccccc2)c2ccc(Cl)c(Cl)c2)CC1 (some centres unmarked) [Example 14] strictly below 0.06 µmol/kg?
## Output condition not met

## Input Decide: ED50 of CN(CC(CCN1CCN(C(c2ccco2)[C@H](O)[C@@H](O)[C@H](O)CO)CC1)c1ccc(Cl)c(Cl)c1)C(=O)c1ccccc1 (mixture of isomers) [Example 13] strictly below 0.06 µmol/kg?
## Output condition not met

## Input Decide: ED50 of CN(C[C@@H](CCN1CCN(C(c2ccsc2)[C@H](O)CO)CC1)c1ccc(Cl)c(Cl)c1)C(=O)c1ccccc1 (some centres unmarked) [Example 5] strictly below 0.06 µmol/kg?
## Output condition not met

## Input Decide: ED50 of CN(C[C@@H](CCN1CCN(C(c2ccsc2)[C@H](O)[C@@H](O)[C@H](O)CO)CC1)c1ccc(Cl)c(Cl)c1)C(=O)c1ccccc1 (some centres unmarked) [Example 1] strictly below 0.06 µmol/kg?
## Output condition met

---

Biological target: NK-2 receptors (Cavia porcellus, UniProt Q64077)
Construct: the NK-2 receptors present in the gall-bladder preparations; from tissue; host or cells: Pirbright-White guinea pig: isolated gall-bladder (A2); anaesthetised whole animal (A3)
Test: NK-2-receptor-antagonistic effectiveness in vivo in anaesthetised guinea pigs (NKA test stimulus)
Design: species or system guinea pig
Settings: guinea pig, iv; from AUC of antagonistic effect over 120 min after administration; colonic pressure; read-out: ED50 Colonic pressure, i.v. AUC over 120 min
Test Readout: ED50 (µmol/kg)
Please state the figure in µmol/kg; there is no need to write the unit.

// solved cases for ED50 follow
CN(C[C@@H](CCN1CCN(C(c2ccsc2)[C@H](O)[C@@H](O)[C@H](O)CO)CC1)c1ccc(Cl)c(Cl)c1)C(=O)c1ccccc1 (stereo partly shown) [Example 1]: 0.0009
CN(CC(CCN1CCN(C(c2ccco2)[C@H](O)[C@@H](O)[C@H](O)CO)CC1)c1ccc(Cl)c(Cl)c1)C(=O)c1ccccc1 (mixture of isomers) [Example 13]: 0.018

## Input Look at this molecule and give its reported ED50. CN(C[C@@H](CCN1CCN(C(c2ccsc2)[C@H](O)CO)CC1)c1ccc(Cl)c(Cl)c1)C(=O)c1ccccc1 (stereo partly shown) [Example 5]
## Output 0.014

## Input Look at this molecule and give its reported ED50. CN(C[C@@H](CCN1CCN(C(c2ccsc2)[C@H](O)[C@H](O)CO)CC1)c1ccc(Cl)c(Cl)c1)C(=O)c1ccccc1 (stereo partly shown) [Example 15]
## Output 0.009
